test system: Magnaporthe vegetative mycelia, abc3Δ mutant; assay type: cell-based
Each entry below carries its recorded Minimum Inhibitory Concentration (MIC), abc3Δ.
metric: Minimum Inhibitory Concentration (MIC), abc3Δ

>>> endpoint_value("CC(C)[C@@H]1NC(=O)[C@H](C)OC(=O)[C@@H](C(C)C)NC(=O)[C@@H](C(C)C)OC(=O)[C@H](C(C)C)NC(=O)[C@H](C)OC(=O)[C@@H](C(C)C)NC(=O)[C@@H](C(C)C)OC(=O)[C@H](C(C)C)NC(=O)[C@H](C)OC(=O)[C@@H](C(C)C)NC(=O)[C@@H](C(C)C)OC1=O")
"3 µg/mL"
>>> endpoint_value("CCC(=C/[C@H](C)C/C=C/C(C)=C/[C@@H](C)C(=O)[C@@H](C)[C@H](O)[C@@H](C)C/C(C)=C/C(=O)O)/C=C/[C@@H]1OC(=O)C=C[C@@H]1C")
"0.0075 µg/mL"
>>> endpoint_value("OC(Cn1cncn1)(Cn1cncn1)c1ccc(F)cc1F")
"2500 µg/mL"
